I'd be grateful if you could share measured remaining at 3 h, 1 µM for these entries.
Assay: Stability in mouse plasma assessed as compound remaining at 1 uM measured for 180 mins by LC-MS/MS analysis
Format: ADME, cell-free
Conditions: read-out: Stability
Field format: number, assumed %, no unit text.

Query string: Which remaining at 3 h, 1 µM reading was recorded for the molecule O=c1ccc2cc(COC(Cn3ccnc3)c3ccc(Cl)cc3Cl)ccc2o1 (centres undefined) ?
Result string: 98.7

Query string: Which remaining at 3 h, 1 µM reading was recorded for the molecule O=c1oc2ccccc2cc1COC(Cn1ccnc1)c1ccc(Cl)cc1Cl (centres undefined) ?
Result string: 2.2

Query string: Which remaining at 3 h, 1 µM reading was recorded for the molecule Clc1ccc(COC(Cn2ccnc2)c2ccc(Cl)cc2Cl)c(Cl)c1 (centres undefined) [MICONAZOLE] ?
Result string: 94.9

Query string: Which remaining at 3 h, 1 µM reading was recorded for the molecule O=c1ccc2ccc(COC(Cn3ccnc3)c3ccc(Cl)cc3Cl)cc2o1 (centres undefined) ?
Result string: 103

# credit: ChEMBL document CHEMBL5365497
